Values compiled from patent US20170248578A1.

Test system: HCT116
procedureDetails: Sensitivity to oxaliplatin, MTS assay
Type: cell-based, human
conditionNotes: HCT116, 48 hours of drug exposure, cell survival rate by MTS assay
outcomeMeasure: IC50 (nM)
Numbers only, in nM.

### Prompt Fill in the blank: the reported IC50 of O=C1[O][Pt]2([NH][C@@H]3CCCC[C@H]3[NH]2)[O]C1=O is ____.
### Response 1150

====

System: DLD-1 into which siRNA had been introduced
procedureDetails: Sensitivity to oxaliplatin after introduction of siRNA, MTS assay
Format: cell-based, human
conditionNotes: DLD-1, Control siRNA introduced
outcomeMeasure: pIC50
Numbers only, as −log10 of the molar value.

### Prompt Fill in the blank: the reported pIC50 of O=C1[O][Pt]2([NH][C@@H]3CCCC[C@H]3[NH]2)[O]C1=O is ____.
### Response 4.83

====

Tested on: DLD-1
procedureDetails: Sensitivity to oxaliplatin, MTS assay
Type: cell-based, human
conditionNotes: DLD-1, 48 hours of drug exposure, cell survival rate by MTS assay
outcomeMeasure: pIC50
Answers are plain numbers, as −log10 of the molar value.

### Prompt Fill in the blank: the reported pIC50 of O=C1[O][Pt]2([NH][C@@H]3CCCC[C@H]3[NH]2)[O]C1=O is ____.
### Response 4.86

====

Tested on: HCT116 into which siRNA had been introduced
procedureDetails: Sensitivity to oxaliplatin after introduction of siRNA, MTS assay
Format: cell-based, human
conditionNotes: HCT116, TALDO siRNA introduced
Description: The aforementioned nine human colorectal cancer cell lines were respectively inoculated onto a 96 well plate at a density of 1,500 cells/well, and after 24 hours, oxaliplatin was added thereto. The cell survival rate after 48 hours of drug exposure was evaluated by the MTS assay (CellTiter96™ AQueous One Solution Cell Proliferation Assay, Promega), and the IC50 values were determined from the absorbance values. […]
outcomeMeasure: pIC50
One number for each entry, as −log10 of the molar value.

### Prompt Fill in the blank: the reported pIC50 of O=C1[O][Pt]2([NH][C@@H]3CCCC[C@H]3[NH]2)[O]C1=O is ____.
### Response 6.14

====

Tested on: HCT15
procedureDetails: Sensitivity to oxaliplatin, MTS assay
Format: cell-based, human
conditionNotes: HCT15, 48 hours of drug exposure, cell survival rate by MTS assay
Method: Nine human colorectal cancer cell lines (SW480, Ls174T, Lovo, SW620, HCT116, HCT15, HT29, DLD-1, and WiDr) were obtained from the following sources (Table 1). […] The aforementioned nine human colorectal cancer cell lines were respectively inoculated onto a 96 well plate at a density of 1,500 cells/well, and after 24 hours, oxaliplatin was added thereto. […] An analysis was carried out based on the survival rate calculated from the results of the MTS assay.
outcomeMeasure: pIC50
Answers are plain numbers, as −log10 of the molar value.

### Prompt Fill in the blank: the reported pIC50 of O=C1[O][Pt]2([NH][C@@H]3CCCC[C@H]3[NH]2)[O]C1=O is ____.
### Response 5.84
